# METHOD: Tmax in male Sprague-Dawley rat at 10 mg/kg, po measured after 24 hrs by LC-MS/MS analysis
# Assay type: ADME, organism-based
# CONDITION: in vivo
PARAMETER: Tmax (h)
The answer is to be given in h; state only the numeric part.

Which Tmax is listed for O=C1CCC(N2C(=O)c3ccc(N4CCN(CC5CCN(C(=O)c6ccc(-c7cnc8ncc(Cc9ccc%10ncccc%10c9)n8n7)cc6F)CC5)CC4)cc3C2=O)C(=O)N1 (stereo unspecified) ? 2

###

# METHOD: Cmax in po dosed rat
# Type: ADME, organism-based
# CONDITION: in vivo
PARAMETER: Cmax (ng/mL)
State the answer as a number, implicitly in ng/mL.

Please report the recorded Cmax for CNC(=O)c1ccc(-c2cnc3ncc(Cc4ccc5ncccc5c4)n3n2)cc1F . 3820
